Please find below IC50 data on PIK3CA (human) (UniProt P42336) compiled from the literature.

Observe how each entry below is paired with its result.
COMPOUND: CN(C)CCc1ccc(Oc2cc(=O)[nH]c3ccccc23)cc1
IC50: > 10000 nM
--
COMPOUND: O=C(c1cnc2ccc(-c3ccc4c(Nc5ccccc5)nsc4c3)cn12)N1CCOCC1
IC50: > 10000 nM
--
COMPOUND: CN(C)CCOc1ccc(NC(=O)Nc2ccc3c(c2)C(=O)/C(=C/c2cn(C)c4nccc(N5CC6CCC(C5)O6)c24)O3)cc1
IC50: 915 nM
--
COMPOUND: C[C@H]1COCCN1c1nc(-c2cnc(N)cc2C(F)(F)F)nc2ccc(-c3cccc(NS(=O)(=O)CCCF)c3F)nc12
IC50: 1 to 100 nM

Query block: Name the recorded IC50 of the item `COc1ccccc1-c1cccc2cc([C@H](C)Nc3ncnc4scnc34)n(-c3ccccc3)c(=O)c12` in your answer.
Result block: 1000 to 10000 nM

Query block: Name the recorded IC50 of the item `Nc1ncc(-c2ccc3ncc4nnn(C5CCN(C(=O)C6CC6)CC5)c4c3n2)cc1F` in your answer.
Result block: < 100 nM

Query block: Name the recorded IC50 of the item `C[C@@H](O)C(=O)N1CCC(n2cnc3cnc4ccc(-c5cnc(N)c(C(F)(F)F)c5)nc4c32)CC1` in your answer.
Result block: < 100 nM

Query block: Name the recorded IC50 of the item CC1CN(C(=O)c2nc([C@H](C)Nc3ncnc4scnc34)cc3cccc(Cl)c23)CCO1 (some centres unmarked) in your answer.
Result block: > 10000 nM

====

Please find below IC50 data on PIK3CA (human) (UniProt P42336) compiled from the literature.

Observe how each entry below is paired with its result.
SMILES_STRING: Nc1nc2cc(-c3ccc4ncc(N5CCNCC5=O)nc4c3)ccc2o1
TESTED_SYSTEM: PIK3CA (human) (UniProt P42336)
IC50: < 1 µM
//
SMILES_STRING: C[C@H](NC(=O)c1c(N)nn2cccnc12)c1cc2cccc(Cl)c2c(=O)n1-c1ccc(F)cc1
TESTED_SYSTEM: PIK3CA (human) (UniProt P42336)
IC50: 1 to 10 µM
//
SMILES_STRING: C[C@H](NC(=O)c1c(N)nn2cccnc12)c1cc2cccc(Cl)c2c(=O)n1-c1ccc(F)c(F)c1
TESTED_SYSTEM: PIK3CA (human) (UniProt P42336)
IC50: 1 to 10 µM

Continue with the compound presented below.
Query block: Lab note: record IC50 of `C[C@H](Nc1ncnc2[nH]cnc12)c1cc2cccc(Cl)c2c(SCCN2CCOCC2)n1` tested on PIK3CA (human) (UniProt P42336).
Result block: < 10 µM

====

Please find below IC50 data on PIK3CA (human) compiled from the literature.

COMPOUND: Cn1cc(/C=C2\Oc3cc(O)cc(O)c3C2=O)c2c(N3CCCCCC3)ccnc21
ASSAY_RESULT: 0.041 µM
--
COMPOUND: CNC(=O)c1ccc(Nc2nc(Nc3ccc(NC(=O)Nc4cccnc4)cc3)nc3c2cnn3C)cc1
ASSAY_RESULT: 0.0025 µM
--
COMPOUND: CCN(CC)CCCn1cnc2ccc(-c3ccc4oc(N)nc4c3)cc2c1=O
ASSAY_RESULT: < 1 µM
--
COMPOUND: C[C@H](Nc1ccnc2ccnn12)c1cc2cccc(-c3cnn(C)c3)c2c(=O)n1-c1ccccc1
ASSAY_RESULT: 1 to 10 µM

Query block: Lab note: record IC50 of `C[C@H](Nc1nc(N)nc2cccnc12)c1cc2cccc(Cl)c2c(C(=O)N2CCOCC2)n1` tested on PIK3CA (human).
Result block: > 10 µM
